protocol-summary: Pharmacokinetic Assay, single oral dose 5 mg/kg (Table 12)
Assay type: in vivo
assay-conditions: mouse; plasma concentration, C57 female mice, single oral dose 5 mg/kg, 2 h
# maps each entry to its concentration at 2 h

Item: Cc1c(-c2nc3cc(CN4CC(C#N)C4)c(OC(F)F)cc3o2)cccc1-c1cccc(-c2nc3cc(CN4CCC[C@H]4C(=O)O)c(OC(F)F)cc3o2)c1C | concentration at 2 h: 299 ng/mL

Item: Cc1c(-c2nc3c(o2)CCN(CC#N)C3)cccc1-c1cccc(-c2nc3cc(CN4CCC[C@H]4C(=O)O)c(OC(F)F)cc3o2)c1C | concentration at 2 h: 255 ng/mL

---

protocol-summary: Pharmacokinetic Assay, single oral dose 100 mg/kg (Table 11)
Format: in vivo
assay-conditions: mouse, C57 female mice, oral (intragastric), plasma
# maps each entry to its AUC
Reply with the number, then its unit.

- smiles-code: "Cc1c(-c2nc3cc(CN4CCC[C@H]4C(=O)O)c(OC(F)F)cc3o2)cccc1-c1cccc(-c2nc3cc(CN4CCCC4)cc(F)c3o2)c1C"
  AUC: "22900 ng·h/mL"
- smiles-code: "Cc1c(-c2nc3cc(CN4CCC[C@H]4C(=O)O)c(OC(F)F)cc3o2)cccc1-c1cccc(-c2nc3cc(CN4CCCC4)cc(C(F)(F)F)c3o2)c1C"
  AUC: "235000 ng·h/mL"
- smiles-code: "Cc1c(-c2nc3cc(CN4CCC[C@H]4C(=O)O)c(OC(F)F)cc3o2)cccc1-c1cccc(-c2nc3cc(CN4CCCC4(C)C)c(OC(F)F)cc3o2)c1C"
  AUC: "46500 ng·h/mL"

Now, please, on to the next compound.
Item: Cc1c(-c2nc3cc(CN4CC[C@H]4CO)c(OC(F)F)cc3o2)cccc1-c1cccc(-c2nc3cc(CN4CCC[C@H]4C(=O)O)c(OC(F)F)cc3o2)c1C | AUC: 6600 ng·h/mL

---

# maps each entry to its half-life
protocol-summary: Pharmacokinetic Assay, single oral dose 100 mg/kg (Table 11)
Assay type: in vivo
assay-conditions: mouse, C57 female mice, oral (intragastric), plasma
Your answer should be a plain number; it is taken to be in min.

- smiles-code: "Cc1c(-c2nc3cc(CN4CCC[C@H]4C(=O)O)c(OC(F)F)cc3o2)cccc1-c1cccc(-c2nc3cc(CN4CCCC4)cc(F)c3o2)c1C"
  half-life [min]: 389
- smiles-code: "Cc1c(-c2nc3cc(CN4CCC[C@H]4C(=O)O)c(OC(F)F)cc3o2)cccc1-c1cccc(-c2nc3cc(CN4CC(C)(C)C4)cc(C#N)c3o2)c1C"
  half-life [min]: 1400

Now, please, on to the next compound.
Item: CNCc1cc2nc(-c3cccc(-c4cccc(-c5nc6cc(CN7CCC[C@H]7C(=O)O)c(OC(F)F)cc6o5)c4C)c3C)oc2cc1OC(F)F | half-life: 590

---

protocol-summary: Pharmacokinetic Assay, single oral dose 100 mg/kg (Table 11)
Format: in vivo
assay-conditions: mouse, C57 female mice, oral (intragastric), plasma
measured-endpoint: AUC (ng·h/mL)
Your answer should be a plain number; it is taken to be in ng·h/mL.

Sample answers from the record:
- molecule: "Cc1c(-c2nc3cc(CN4CCCC4)c(OC(F)F)cc3o2)cccc1-c1cccc(-c2nc3cc(CN4CCC[C@H]4C(=O)O)c(OC(F)F)cc3o2)c1C [Example 5]"
  AUC [ng·h/mL]: 25700
- molecule: "Cc1c(-c2nc3c(o2)CCNC3)cccc1-c1cccc(-c2nc3cc(CN4CCC[C@H]4C(=O)O)c(OC(F)F)cc3o2)c1C [Example 190]"
  AUC [ng·h/mL]: 8570
- molecule: "Cc1c(-c2nc3c(o2)CCN(C)C3)cccc1-c1cccc(-c2nc3cc(CN4CCC[C@H]4C(=O)O)c(OC(F)F)cc3o2)c1C [Example 314]"
  AUC [ng·h/mL]: 29000
- molecule: "Cc1c(-c2nc3cc(CN4CCC4C)c(OC(F)F)cc3o2)cccc1-c1cccc(-c2nc3cc(CN4CCC[C@H]4C(=O)O)c(OC(F)F)cc3o2)c1C (stereo partly drawn) [Example 36]"
  AUC [ng·h/mL]: 21400
- molecule: "Cc1c(-c2nc3cc(CN4CCC[C@H]4C(=O)O)c(OC(F)F)cc3o2)cccc1-c1cccc(-c2nc3cc(CN4CCC[C@H]4C(=O)O)c(OC(F)F)cc3o2)c1C [Example 2]"
  AUC [ng·h/mL]: 271

Item: Cc1c(-c2nc3cc(CN4CCC(O)C4)c(OC(F)F)cc3o2)cccc1-c1cccc(-c2nc3cc(CN4CCC[C@H]4C(=O)O)c(OC(F)F)cc3o2)c1C (stereo partly drawn) [Example 14] | AUC: 3450

Item: Cc1c(-c2nc3ccc(CN4CCCC4)cc3o2)cccc1-c1cccc(-c2nc3cc(CN4CCC[C@H]4C(=O)O)c(OC(F)F)cc3o2)c1C [Example 108] | AUC: 10100

Item: COC(=O)[C@@H]1CCCN1Cc1cc2nc(-c3cccc(-c4cccc(-c5nc6cc(CN7CCC[C@H]7C(=O)O)c(OC(F)F)cc6o5)c4C)c3C)oc2cc1OC(F)F [Example 3] | AUC: 461

Item: Cc1c(Nc2nccc3cc(CN4CCC(O)C4)cnc23)cccc1-c1cccc(-c2nc3cc(CN4CCC[C@H]4C(=O)O)c(OC(F)F)cc3o2)c1C (stereo partly drawn) [Example 175] | AUC: 19900

Item: Cc1c(-c2nc3cc(CN4CCCC4)ccc3o2)cccc1-c1cccc(-c2nc3cc(CN4CCC[C@H]4C(=O)O)c(OC(F)F)cc3o2)c1C [Example 98] | AUC: 8700

Item: Cc1c(Nc2nccc3cc(CN4CCC[C@@]4(C)C(=O)O)cnc23)cccc1-c1cccc(-c2nc3cc(CN4CCC[C@H]4C(=O)O)c(OC(F)F)cc3o2)c1C [Example 171] | AUC: 3470

Item: Cc1c(-c2nc3cc(CN4CCC[C@H]4CO)c(OC(F)F)cc3o2)cccc1-c1cccc(-c2nc3cc(CN4CCC[C@H]4C(=O)O)c(OC(F)F)cc3o2)c1C [Example 12] | AUC: 14500

---

protocol-summary: Pharmacokinetic Assay, single oral dose 5 mg/kg (Table 12)
Assay type: in vivo
assay-conditions: mouse; plasma concentration, C57 female mice, single oral dose 5 mg/kg, 2 h
Please respond with 1 (yes) when measured concentration at 2 h is strictly beneath 400 ng/mL, and with 0 (no) in all other cases.

Reference set, count: 2
- compound: "COc1c(-c2nc3cc(CN4CCCC4)c(F)c(F)c3o2)cccc1-c1cccc(-c2nc3cc(CN4CCC[C@H]4C(=O)O)c(OC(F)F)cc3o2)c1C [Example 117]"
  category: "1 (yes)"
- compound: "Cc1c(-c2nc3cc(CN4CCC[C@H]4C(=O)O)c(OC(F)F)cc3o2)cccc1-c1cccc(-c2ccc(CN3CCCC3)cc2Cl)c1C [Example 231]"
  category: "1 (yes)"

Task: Just wondering, is concentration at 2 h of Cc1c(-c2nc3cc(CN4CCC[C@H]4C(=O)O)c(OC(F)F)cc3o2)cccc1-c1cccc(-c2nc3cc(CN(C)CC#N)cc(C#N)c3o2)c1C [Example 136] below 400 ng/mL?
Result: 0 (no)

Task: Just wondering, is concentration at 2 h of Cc1c(-c2nc3cc(CN4CCC[C@H]4C(=O)O)c(OC(F)F)cc3o2)cccc1-c1cccc(-c2ccc(CN3CCCC3)cc2F)c1C [Example 253] below 400 ng/mL?
Result: 1 (yes)

---

# maps each entry to its IC50
target-or-test-system: PD-1/PD-L1 (Homo sapiens (Human), UniProt Q9NZQ7)
Sequence (Q9NZQ7 19-238): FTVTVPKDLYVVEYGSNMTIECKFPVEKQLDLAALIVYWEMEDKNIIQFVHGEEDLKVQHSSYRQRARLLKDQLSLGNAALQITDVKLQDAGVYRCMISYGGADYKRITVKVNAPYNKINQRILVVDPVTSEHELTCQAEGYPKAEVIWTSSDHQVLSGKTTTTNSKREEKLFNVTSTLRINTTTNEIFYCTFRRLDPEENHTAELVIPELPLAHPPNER
protocol-summary: PD-1/PD-L1 Binding Assay (Alphascreen)
assay-conditions: numeric values
Your answer should be a plain number; it is taken to be in nM.

- compound: "Cc1c(-c2nc3cc(CNCCO)c(OCc4cncc(S(C)(=O)=O)c4)cc3o2)cccc1-c1cccc(-c2nc3cc(CN4CCC[C@H]4C(=O)O)c(OC(F)F)cc3o2)c1C"
  measured-endpoint: "IC50"
  observed-result: 0.6

Item: COC[C@@H]1CCCN1Cc1cc2nc(-c3cccc(-c4cccc(-c5nc6cc(CN7CCC[C@H]7C(=O)O)c(OC(F)F)cc6o5)c4C)c3C)oc2cc1OC(F)F | IC50: 5.7

Item: Cc1c(-c2ccc(CN3CCC(N(C)C)C3)cc2)cccc1-c1cccc(-c2nc3cc(CN4CCC[C@H]4C(=O)O)c(OC(F)F)cc3o2)c1C (stereo partly drawn) | IC50: 4.3

---

target-or-test-system: PD-1/PD-L1 (Homo sapiens (Human), UniProt Q9NZQ7)
protocol-summary: PD-1/PD-L1 Binding Assay (Alphascreen)
assay-conditions: range symbols
# maps each entry to its IC50

- compound: "Cc1c(-c2nc3cc(CN4CCC[C@@H]4C(=O)O)c(OC(F)F)cc3o2)cccc1-c1cccc(-c2nc3ccc(CN4CC(C)(C)C4)cc3o2)c1Cl"
  observed-result: "0.1 to 5 nM"
- compound: "CCN(CCO)Cc1cc(C#N)c2oc(-c3cccc(-c4cccc(-c5nc6cc(CN7CCC[C@H]7C(=O)O)c(OC(F)F)cc6o5)c4C)c3C)nc2c1"
  observed-result: "0.1 to 5 nM"
- compound: "Cc1c(-c2nc3cc(CN4CCC[C@H]4C(=O)O)c(OC(F)F)cc3o2)cccc1-c1cccc(-c2nc3cc(CN4CC(C)(C)C4)cc(C(F)(F)F)c3o2)c1C"
  observed-result: "0.1 to 5 nM"
- compound: "Cc1c(-c2ccc(CN3CCC(F)C3)cc2)cccc1-c1cccc(-c2nc3cc(CN4CCC[C@H]4C(=O)O)c(OC(F)F)cc3o2)c1C (some centres unmarked)"
  observed-result: "0.1 to 5 nM"
- compound: "Cc1c(-c2ccc(CN3CCCC3)c(OCCc3ccc(F)cc3)c2)cccc1-c1cccc(-c2nc3cc(CN4CCC[C@H]4C(=O)O)c(OC(F)F)cc3o2)c1C"
  observed-result: "5 to 50 nM"
- compound: "Cc1c(-c2nc3cc(CN4CCC[C@@H]4C(=O)O)c(OC(F)F)cc3o2)cccc1-c1cccc(-c2nc3cc(CN4CC(C)(C)C4)cnc3o2)c1C"
  observed-result: "5 to 50 nM"

Item: Cc1c(-c2nc3cc(CN4CCC[C@H]4C(=O)O)c(OC(F)F)cc3o2)cccc1-c1cccc(-c2nc3cc(CN4CCC4(C)O)c(OC(F)F)cc3o2)c1C (some centres unmarked) | IC50: 0.1 to 5 nM

Item: Cc1c(-c2nc3c(o2)CN(C)CC3)cccc1-c1cccc(-c2nc3cc(CN4CCC[C@H]4C(=O)O)c(OC(F)F)cc3o2)c1C | IC50: 0.1 to 5 nM

Item: Cc1c(-c2nc3cc(CN4CCC[C@H]4C(=O)O)c(OC(F)F)cc3o2)cccc1-c1cccc(-c2nc3cc(CN4CC(N(C)C5COC5)C4)cc(C#N)c3o2)c1C | IC50: 0.1 to 5 nM
